biological target: HCV polymerase (NS5B) type 1a (Hepatitis C virus genotype 1a, UniProt P26664); construct: made in house; host or cells: Escherichia coli (by the 'similar method' of the 1b enzyme); test: Assay of enzyme (HCV polymerase) inhibitory activity, type 1a enzyme; format: biochemical, HCV type 1a (cloned from the blood of patients); conditions: HCV polymerase inhibitory activity IC50, 1a, type 1a enzyme
Recorded IC50 values for a group of compounds are listed next.
observable: IC50

{"columns": ["compound", "result"],
 "data": [
  ["CCC(F)(F)c1ccc(CNC(=O)[C@H]2CN(c3cnc4cccnc4n3)CCN2S(=O)(=O)c2ccc(OC(F)(F)F)cc2)cc1 [Example 760]", "< 100 nM"],
  ["CCCc1ccc(CNC(=O)[C@H]2CN(c3nc(Cl)c(C(=O)O)s3)CCN2S(=O)(=O)c2ccc(OC(F)(F)F)cc2)cc1 [Example 847]", "< 100 nM"],
  ["O=C(NCC12CC3CC(CC(C3)C1)C2)[C@H]1CN(c2cnc3cncnc3n2)CCN1S(=O)(=O)c1ccc(OC(F)(F)F)cc1 [Example 804]", "> 1000 nM"],
  ["O=C(NCc1ccc(OC(F)(F)F)cc1)[C@H]1CNCCN1S(=O)(=O)c1ccc(OC(F)(F)F)cc1 [Example 783]", "> 1000 nM"],
  ["CC(C)c1ncc2sc(N3CCN(S(=O)(=O)c4ccc(OC(F)(F)F)cc4)[C@@H](C(=O)NCc4ccc(OC(F)(F)F)cc4)C3)nc2n1 [Example 984]", "< 100 nM"],
  ["O=C(NCc1ccc(OC(F)(F)F)cc1)[C@H]1CN(c2nc3nc(C4CC4)[nH]c(=O)c3s2)CCN1S(=O)(=O)c1ccc(C(F)(F)F)cc1 [Example 1107]", "100 to 1000 nM"],
  ["CCOC(=O)c1ccc2ncc(N3CCN(S(=O)(=O)c4ccc(OC(F)(F)F)cc4)[C@@H](C(=O)NCc4ccc(C(F)(F)CC)cc4)C3)nc2c1 [Example 710]", "100 to 1000 nM"],
  ["O=C(NCc1ccc(-c2ccccn2)s1)[C@H]1CN(c2cnc3cncnc3n2)CCN1S(=O)(=O)c1ccc(OC(F)(F)F)cc1 [Example 730]", "< 100 nM"],
  ["O=C(NCc1ccc(OC(F)(F)F)cc1)[C@H]1CN(c2cnc3cncnc3n2)CCN1S(=O)(=O)c1ccc([N+](=O)[O-])cc1 [Example 790]", "< 100 nM"],
  ["O=C(NCc1ccc(OC(F)F)cc1)[C@H]1CN(c2nc3nc(Cl)ncc3s2)CCN1S(=O)(=O)c1ccc(OC(F)F)cc1 [Example 955]", "< 100 nM"],
  ["CCCc1ccc(CNC(=O)[C@H]2CN(c3cnc4cncc(C(=O)O)c4n3)CCN2S(=O)(=O)c2ccc([N+](=O)[O-])cc2)cc1 [Example 843]", "< 100 nM"],
  ["O=C(NCc1ccc(OC(F)(F)F)cc1)[C@H]1CN(c2cnc3cnccc3n2)CCN1S(=O)(=O)c1ccc([N+](=O)[O-])cc1 [Example 754]", "< 100 nM"],
  ["O=C(NCc1ccc(OC(F)(F)F)cc1)[C@H]1CN(c2nc3nc(NCCO)ncc3s2)CCN1S(=O)(=O)c1ccc(OC(F)(F)F)cc1 [Example 946]", "< 100 nM"]
]}
